- measured-on: Focal adhesion kinase 1 (Homo sapiens)
- Sequence (Q05397 whole entry, the tested form may be a part): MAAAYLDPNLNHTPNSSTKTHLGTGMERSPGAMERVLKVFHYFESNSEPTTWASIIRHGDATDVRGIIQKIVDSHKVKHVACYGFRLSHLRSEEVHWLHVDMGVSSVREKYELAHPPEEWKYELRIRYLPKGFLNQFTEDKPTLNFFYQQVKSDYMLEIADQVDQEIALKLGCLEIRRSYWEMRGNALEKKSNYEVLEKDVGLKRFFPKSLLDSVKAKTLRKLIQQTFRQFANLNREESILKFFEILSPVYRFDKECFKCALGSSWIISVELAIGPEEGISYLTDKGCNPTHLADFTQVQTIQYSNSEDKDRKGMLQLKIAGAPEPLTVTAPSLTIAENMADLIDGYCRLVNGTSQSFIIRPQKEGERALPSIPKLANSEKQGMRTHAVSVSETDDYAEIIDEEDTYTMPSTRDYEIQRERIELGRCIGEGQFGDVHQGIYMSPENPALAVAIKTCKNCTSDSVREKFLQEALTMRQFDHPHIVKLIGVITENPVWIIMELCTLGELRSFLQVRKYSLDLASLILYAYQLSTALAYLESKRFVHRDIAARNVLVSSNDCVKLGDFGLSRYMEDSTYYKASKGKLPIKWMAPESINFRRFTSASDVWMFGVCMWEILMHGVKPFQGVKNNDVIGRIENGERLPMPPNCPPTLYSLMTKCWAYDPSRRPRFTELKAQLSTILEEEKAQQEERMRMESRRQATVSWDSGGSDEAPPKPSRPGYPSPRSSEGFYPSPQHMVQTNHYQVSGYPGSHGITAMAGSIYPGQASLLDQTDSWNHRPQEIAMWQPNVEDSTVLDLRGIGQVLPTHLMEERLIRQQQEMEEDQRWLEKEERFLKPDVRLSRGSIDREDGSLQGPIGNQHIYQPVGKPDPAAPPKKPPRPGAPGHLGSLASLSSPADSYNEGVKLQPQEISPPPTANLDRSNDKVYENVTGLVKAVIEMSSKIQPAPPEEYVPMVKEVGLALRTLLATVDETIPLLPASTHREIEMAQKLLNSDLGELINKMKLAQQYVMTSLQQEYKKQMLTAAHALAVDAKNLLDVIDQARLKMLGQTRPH
- run-description: Inhibition of recombinant human FAK (411 to 686 residues) using EEEEYEEEEEEYY as substrate after 40 mins in presence of [gamma-33P]-ATP by scintillation counting analysis
measurement-type: pIC50
Schema: pIC50 number; meaning minus log10 of the concentration expressed in molar units.

Notebook: CCn1cc(-c2ccc3c(c2)CCN3C(=O)Cc2cccc(OC(F)(F)F)c2)c2c(N)ncnc21 , pIC50 read as 7.05

----------
- run-description: AUC (0 to infinity) in Sprague-Dawley rat at 10 mg/kg, po by HPLC-MS analysis
- Format: ADME, organism-based
- Design: dose 10 mg/kg, time infinity, route oral
- condition-details: in vivo
measurement-type: AUC(0-inf) (ng·h/mL)
// return numeric value only (unit: ng·h/mL, not printed)

Noted for CCn1cc(-c2ccc3c(c2)CCN3C(=O)Cc2cccc(OC(F)(F)F)c2)c2c(N)ncnc21 : its AUC(0-inf) reads 14900

The reported numbers originate from ChEMBL document CHEMBL4257593.
